Reference source: patent EP1644414B1

Each record here notes measured OD492nm.
molecular target: UV-inactivated SARS-CoV preparation (Frankfurt 1 strain) (SARS-CoV strain Frankfurt 1); experiment: phage ELISA, plate 3 (no phage 0.054)
The reply should contain only the number, in OD492nm.

Some solved entries appear below for comparison.
[[record]]
binder = "SC03-055 (scFv) scFv: AMAQVQLQQWGAGLLKPSETLSLTCAVYGGSFSGFYWSWIRQPPGKGLEWIGEINHSGSTNYNPSLKSRVTISADTSKNQFSLKLSSVTAADTAVYYCARRVEVVEYQLLRPRYKSWFDPWGQGTLVTVSSGTGGSGGTGSGTGGSTQSVLTQPPSVSGAPGQRVSISCSGSGANGGTDPVSWYQKFPGTAPHLLIYDNNKRPSGIPDRFSGSKSGASATLDITGLQTGDEADYYCGAWDPSLSGYVFGTGTQLTVLSAA"
endpoint = "OD492nm"
reported_result = 0.608

[[record]]
binder = "SC03-051 (scFv) scFv: AMAQVQLVQSGTEVKKPGESLKISCKGSGYGFITYWIGWVRQMPGKGLEWMGIIYPGDSETRYSPSFQGQVTISADKSINTAYLQWSSLKASDTAIYYCAGGSGISTPMDVWGQGTTVTVSSGTGGSGGTGSGTGGSTDIQMTQSPDSLAVSLGERATINCKSGQSILYSSNDKNYLAWYQQKPGQPPKLLIYWASTRESGVPDRFSGSGSGTDFTLTISSLQAEDVAVYYCQQYYSTPYTFGQGTKVEIKRAA"
endpoint = "OD492nm"
reported_result = 0.602


As a next step, examine the binder that follows.
IN: Please look up its OD492nm: SC03-039 (scFv) scFv: AMAEVQLVESGGGLVQPGGSLRLSCAASGFTFSSYAMSWVRQAPGKGLEWVSVIYSGGTSTYYADSVKGRFTISRDNSKNTLYLQMNSLRAEDTAVYFCAKGSKWNDVGGGDYWGQGTLVTVSSGTGGSGGTGSGTGGSTNFMLTQPHSVSESPGKTVTISCAGSSGSIASNYVQWYQQRPGSAPTTVIYEDNQRPSGVPDRFSGSIDSSSNSASLTISGLKTEDEADYYCQSYDGYLWIFGGGTKLTVLGAA
OUT: 0.851
